Each record here notes measured pIC50.
biological target: PDE4D7 (Homo sapiens (Human), UniProt Q08499); conditions: read-out: PDE4D7 IC50; PDE4D7 without asterisk
Sequence (Q08499 other isoform, or with tags, fused parts or gaps): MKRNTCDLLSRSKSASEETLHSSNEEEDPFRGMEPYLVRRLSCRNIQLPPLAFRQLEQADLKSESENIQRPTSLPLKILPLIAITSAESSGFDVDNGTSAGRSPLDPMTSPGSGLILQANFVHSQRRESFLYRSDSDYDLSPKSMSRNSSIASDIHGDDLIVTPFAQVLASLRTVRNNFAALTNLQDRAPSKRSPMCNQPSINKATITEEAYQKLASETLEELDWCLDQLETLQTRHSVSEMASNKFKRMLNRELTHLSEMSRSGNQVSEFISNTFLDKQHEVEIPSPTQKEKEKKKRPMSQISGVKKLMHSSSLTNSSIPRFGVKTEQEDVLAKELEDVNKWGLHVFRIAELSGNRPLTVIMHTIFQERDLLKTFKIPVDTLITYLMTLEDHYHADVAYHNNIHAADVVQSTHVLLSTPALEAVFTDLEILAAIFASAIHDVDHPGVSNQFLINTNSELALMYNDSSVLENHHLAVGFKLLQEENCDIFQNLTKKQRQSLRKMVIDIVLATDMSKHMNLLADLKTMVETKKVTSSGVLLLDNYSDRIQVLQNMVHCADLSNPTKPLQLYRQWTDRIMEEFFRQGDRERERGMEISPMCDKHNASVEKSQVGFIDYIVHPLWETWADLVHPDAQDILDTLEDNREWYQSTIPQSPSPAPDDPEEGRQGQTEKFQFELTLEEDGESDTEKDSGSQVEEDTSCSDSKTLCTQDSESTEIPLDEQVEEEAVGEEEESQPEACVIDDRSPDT
pIC50: −log10 of the molar value.

{"columns": ["smi", "pIC50"],
 "data": [
  ["NC(=O)Cc1ccc(Nc2nc(-c3cccc(Cl)c3)nc3c2S(=O)(=O)CCC3)cc1", "> 6.00"],
  ["NC(=O)Cc1ccc(Nc2nc(-c3ccc(Cl)s3)nc3c2CCC3)cc1", "> 6.00"],
  ["CCc1c(C)nc(-c2ccc(Cl)s2)nc1Nc1ccc(Cc2nc(C(=O)O)c[nH]2)cc1", "< 6.00"],
  ["C[C@@H](O)Cc1ccc(Nc2nc(-c3cccc(Cl)c3)nc3c2CCC3)cc1", "< 6.00"]
]}

###

molecular target: PDE4D7 (Homo sapiens (Human), UniProt Q08499); conditions: read-out: PDE4D7 IC50; PDE4D7 without asterisk
Structures can show the parent of a compound that is named as a salt.

{"columns": ["compound", "IC50"],
 "data": [
  ["COC(=O)Cc1cccc(Nc2cc(-c3cccc(Cl)c3)nc3c2CCC3)c1 [Example 100, hydrochloride]", "> 1000 nM"],
  ["CC(C)Oc1cc(Nc2ccc(CCO)cc2)c2c(n1)CCC2 [Example 260, hydrochloride]", "> 1000 nM"],
  ["O=S1(=O)CCCc2nc(-c3cccc(Cl)c3)nc(Nc3ccc(CCO)cc3)c21 [Example 273]", "< 1000 nM"],
  ["C[C@H](O)Cc1ccc(Nc2nc(-c3cccc(Cl)c3)nc3c2CCC3)cc1 [Example 173]", "> 1000 nM"],
  ["C=Cc1ccc(Nc2nc(-c3cccc(Cl)c3)nc3c2CCC3)cc1 [Example 174]", "> 1000 nM"],
  ["COC(=O)c1ccc(Nc2cc(-c3cccc(Cl)c3)nc3c2CCC3)cc1 [Example 87]", "> 1000 nM"],
  ["OCCc1ccc(Nc2nc(-c3cccc(Cl)c3)nc3c2CCCC3)cc1 [Example 235]", "< 1000 nM"],
  ["CCc1cc(Nc2ccc(CCN(C)C)cc2)nc(-c2cccc(Cl)c2)n1 [Example 170, hydrochloride]", "> 1000 nM"]
]}

###

biological target: PDE4D7 (Homo sapiens (Human), UniProt Q08499); settings: read-out: PDE4D7 IC50; PDE4D7 without asterisk
pIC50: −log10 of the molar value.
endpoint name: pIC50

{"columns": ["compound", "obs value"],
 "data": [
  ["OCCc1ccc(Nc2cc(-c3ncco3)nc3c2CCC3)cc1", "< 6.00"],
  ["CC(C)(O)Cc1ccc(Nc2cc(-c3cccc(Cl)c3)nc3c2CCC3)cc1", "< 6.00"],
  ["O=S1(=O)CCCc2nc(C3CCCC3)nc(Cc3ccc(CCO)cc3)c21", "> 6.00"],
  ["CCCNC(=O)Cc1ccc(Nc2nc(-c3cccc(Cl)c3)nc3c2S(=O)(=O)CCC3)cc1", "< 6.00"],
  ["NC(=O)Cc1ccc(Nc2cc(SC3CCCC3)nc3c2CCC3)cc1", "< 6.00"],
  ["NC(=O)Cc1ccc(Nc2cc(C(F)(F)F)nc(C3CCCC3)n2)cc1", "> 6.00"],
  ["CCc1cc(Nc2ccc(C(CO)C(F)(F)F)cc2)nc(-c2cccc(Cl)c2)n1 (stereo not drawn)", "< 6.00"],
  ["CCOC(=O)Cc1ccc(Nc2cc(CC)nc(-c3cccc(Cl)c3)n2)cc1", "< 6.00"],
  ["O=S1(=O)CCc2nc(-c3cccc(Cl)c3)nc(Nc3ccc(CCO)cc3)c21", "> 6.00"]
]}

Every entry's value here was drawn from patent US11401286B2.
